Assay: physchem
Details: buffer, pH 7.4
Where no end group is shown, it is not given here.
property: half-life at 800 µM (h)
Give just the number in h; leave the unit off.

VYPNGA [protiated peptide, L-Val-L-Tyr-L-Pro-L-Asn-Gly-L-Ala, reference compound] yielded half-life at 800 µM of 32.4
